test system: OVCAR-8 ovarian; assay: NCI tumour cell line growth inhibition, 48 h; in the data active = GI50 below about 0.43 µM; inactive = the rest
Classes used: t for active, f for inactive

molecule: CC[C@]12C=CCN3CC[C@@]4(c5ccc(OC)cc5N(C)[C@H]4[C@@](O)(C(=O)OC)[C@@H]1OC(=O)CCCN1CCN(CCCC(=O)O[C@@H]4[C@]5(CC)C=CCN6CC[C@@]7(c8ccc(OC)cc8N(C)[C@H]7[C@@]4(O)C(=O)OC)[C@@H]65)CC1)[C@@H]32
assignedLabel: f
//
molecule: Nc1cc(C(F)(F)F)c(-c2nc(N3CCOCC3)nc(N3CCOCC3)n2)cn1
assignedLabel: f
//
molecule: C/C(=C\c1csc(C)n1)[C@@H]1C[C@@H]2O[C@]2(C)CCC[C@H](C)[C@H](O)[C@@H](C)C(=O)C(C)(C)[C@@H](O)CC(=O)N1
assignedLabel: t
//
molecule: CC1=C(C(=O)Nc2ccc3[nH]ncc3c2)C(c2ccc(F)cc2)N=C(c2ccc(C(F)(F)F)nc2)N1 (centres undefined)
assignedLabel: f
//
molecule: COc1cc2c3c(n(CCCN)c(=O)c2cc1OC)-c1ccc(N)cc1C3=O
assignedLabel: f
//
molecule: c1cc(OCCCCCOc2cccc(-c3nc4ccccc4[nH]3)c2)cc(-c2nc3ccccc3[nH]2)c1
assignedLabel: f
//
molecule: O=C(/C=C(\[O-])c1ccccc1)CCCCCCC(=O)/C=C(\[O-])c1ccccc1.O=C(/C=C(\[O-])c1ccccc1)CCCCCCC(=O)/C=C(\[O-])c1ccccc1.O=C(/C=C(\[O-])c1ccccc1)CCCCCCC(=O)/C=C(\[O-])c1ccccc1.[Y+3].[Y+3]
assignedLabel: f
//
molecule: N#CC1=C(N)Oc2c(ccc3ccccc23)C1c1cc2ccccc2n2nnnc12 (centres undefined)
assignedLabel: f
//
molecule: Cn1cc(-c2ccc3c(c2)ncn3-c2cc(NS(=O)(=O)C3CC3)cc(-c3ccc(F)cc3F)c2)cn1
assignedLabel: f
//
molecule: CN(C)[C@@H]1C(=O)C(C(=O)NCc2nc3[nH]cnc(=S)c3[nH]2)=C(O)[C@@]2(O)C(=O)C3=C(O)c4c(O)cccc4[C@@](C)(O)[C@H]3C[C@@H]12
assignedLabel: f
//
molecule: O=C1C[C@@H]2OCC=C3C[N+]4([O-])CC[C@]56c7ccccc7N1[C@H]5[C@H]2[C@H]3C[C@@H]64 (some centres undefined)
assignedLabel: f
//
molecule: CC(=O)O[C@H]1C[C@@H]2[C@@]3(C)CC[C@H]4C[C@@]4(C)[C@@H]3CC[C@@]2(C)C2=CCC3=C(COC3=O)[C@]21C
assignedLabel: f
//
molecule: OC[C@H]1C[C@](O)(c2ccc(F)cc2)[C@@H](c2ccc(F)cc2)O1
assignedLabel: f
//
molecule: O=C(O)CSc1cc(NS(=O)(=O)c2ccc(Br)cc2)c2ccccc2c1O
assignedLabel: f
